- Protocol description: Clearance in Sprague-Dawley rat at 1 mg/kg, iv
- Assay type: ADME, organism-based
- Cond: in vivo
Value type: clearance (mL/min/kg)
Numbers only; they are read as mL/min/kg.

Chemical structure	clearance [mL/min/kg]
COc1ccc(-c2nn(Cc3nc4cccc(F)c4c(=O)n3-c3c(C)cccc3C)c3ncnc(N)c23)cc1OC	16.5

Quick check: clearance of Cc1cccc(C)c1-n1c(Cn2nc(-c3ccc4[nH]ccc4c3)c3c(N)ncnc32)nc2cccc(F)c2c1=O ?
36

---

Property: concentration at 1 h; scope: individual compounds
- Protocol description: Plasma concentration in Sprague-Dawley rat at 1 mg/kg, iv after 1 hrs
- Type: ADME, organism-based
I only need the number, in ng/mL, no unit after it.

Chemical structure	concentration at 1 h [ng/mL]
COc1ccc(-c2nn(Cc3nc4cccc(F)c4c(=O)n3-c3c(C)cccc3C)c3ncnc(N)c23)cc1OC	64.3

Field request: concentration at 1 h | item: Cc1cccc(C)c1-n1c(Cn2nc(-c3ccc4[nH]ccc4c3)c3c(N)ncnc32)nc2cccc(F)c2c1=O
64.3

---

- Protocol description: Plasma concentration in Sprague-Dawley rat at 10 mg/kg, po after 2 hrs
- Type: ADME, organism-based
Each entry below carries its reported concentration at 2 h.
Numbers only here, please. The scale is ng/mL.

Chemical structure	Value type	Assay value
COc1ccc(-c2nn(Cc3nc4cccc(F)c4c(=O)n3-c3c(C)cccc3C)c3ncnc(N)c23)cc1OC	concentration at 2 h	192

// next entry
For the compound Cc1cccc(C)c1-n1c(Cn2nc(-c3ccc4[nH]ccc4c3)c3c(N)ncnc32)nc2cccc(F)c2c1=O , what concentration at 2 h is on record?
192

---

- Target under test: Phosphatidylinositol 4,5-bisphosphate 3-kinase catalytic subunit beta isoform (Homo sapiens, UniProt P42338)
- Sequence (P42338 whole entry, canonical isoform): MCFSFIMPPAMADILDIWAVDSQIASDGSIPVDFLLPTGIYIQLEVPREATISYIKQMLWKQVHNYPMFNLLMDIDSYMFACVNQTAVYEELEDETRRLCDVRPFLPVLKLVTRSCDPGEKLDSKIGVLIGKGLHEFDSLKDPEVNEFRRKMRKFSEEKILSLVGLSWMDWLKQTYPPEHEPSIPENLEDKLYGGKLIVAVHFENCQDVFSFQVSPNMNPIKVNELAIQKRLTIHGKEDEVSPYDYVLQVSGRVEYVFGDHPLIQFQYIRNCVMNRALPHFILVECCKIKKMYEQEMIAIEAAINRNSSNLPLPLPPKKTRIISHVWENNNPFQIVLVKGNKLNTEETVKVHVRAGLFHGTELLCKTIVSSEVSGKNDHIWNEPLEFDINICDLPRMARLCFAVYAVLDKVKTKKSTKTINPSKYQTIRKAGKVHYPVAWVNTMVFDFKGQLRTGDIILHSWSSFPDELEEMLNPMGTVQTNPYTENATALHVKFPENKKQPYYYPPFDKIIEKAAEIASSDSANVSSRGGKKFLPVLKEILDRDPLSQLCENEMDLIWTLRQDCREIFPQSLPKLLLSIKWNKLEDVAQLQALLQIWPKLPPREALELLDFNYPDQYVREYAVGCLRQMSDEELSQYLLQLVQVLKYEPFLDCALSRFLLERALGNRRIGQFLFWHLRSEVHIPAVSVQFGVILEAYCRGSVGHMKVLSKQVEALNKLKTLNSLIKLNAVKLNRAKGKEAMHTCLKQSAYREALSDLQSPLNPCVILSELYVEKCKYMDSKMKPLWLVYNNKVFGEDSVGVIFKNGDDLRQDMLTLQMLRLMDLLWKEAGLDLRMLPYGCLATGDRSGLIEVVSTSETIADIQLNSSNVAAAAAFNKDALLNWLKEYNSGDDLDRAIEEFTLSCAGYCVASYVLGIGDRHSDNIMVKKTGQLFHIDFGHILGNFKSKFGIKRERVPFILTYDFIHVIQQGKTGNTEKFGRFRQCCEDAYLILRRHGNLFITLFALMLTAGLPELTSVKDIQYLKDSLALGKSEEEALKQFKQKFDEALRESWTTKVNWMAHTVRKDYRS
- Protocol description: Inhibition of PI3Kbeta (unknown origin) using Biotin-S11S12 as substrate after 60 mins in presence of ATP by ADPGlo luminescence assay
Value type: pIC50
Lab note: report pIC50 as minus log10 of the concentration in molar units, number only.

Chemical structure	Value type	Assay value
Cc1cccc(C)c1-n1c(Cn2nc(-c3ccc4[nH]ccc4c3)c3c(N)ncnc32)nc2cccc(F)c2c1=O	pIC50	5.47

Lab note: next compound to report on.
For the compound COc1ccc(-c2nn(Cc3nc4cccc(F)c4c(=O)n3-c3c(C)cccc3C)c3ncnc(N)c23)cc1OC , what pIC50 is on record?
5.16

---

- Protocol description: Plasma concentration in Sprague-Dawley rat at 10 mg/kg, po after 0.5 hrs
- Format: ADME, organism-based
Value type: concentration at 0.5 h (ng/mL)
Output spec: scalar in ng/mL, unitless text.

Chemical structure	concentration at 0.5 h / ng/mL
COc1ccc(-c2nn(Cc3nc4cccc(F)c4c(=O)n3-c3c(C)cccc3C)c3ncnc(N)c23)cc1OC	379

Attention now turns to another entry.
Look up concentration at 0.5 h for this compound: Cc1cccc(C)c1-n1c(Cn2nc(-c3ccc4[nH]ccc4c3)c3c(N)ncnc32)nc2cccc(F)c2c1=O
379

---

Entries and their measured Tmax follow.
- Protocol description: Tmax in Sprague-Dawley rat at 10 mg/kg, po
- Assay type: ADME, organism-based
- Cond: in vivo
Reply numerically in min, unit not repeated.

Chemical structure	Unit abbreviation	Tmax
COc1ccc(-c2nn(Cc3nc4cccc(F)c4c(=O)n3-c3c(C)cccc3C)c3ncnc(N)c23)cc1OC	min	50

Moving on to the next compound.
Record request: Tmax value, item Cc1cccc(C)c1-n1c(Cn2nc(-c3ccc4[nH]ccc4c3)c3c(N)ncnc32)nc2cccc(F)c2c1=O
50

---

Measured inhibition, listed per entry.
- Target under test: Phosphatidylinositol 4,5-bisphosphate 3-kinase catalytic subunit delta isoform (Homo sapiens) (UniProt O00329)
- Sequence (whole entry): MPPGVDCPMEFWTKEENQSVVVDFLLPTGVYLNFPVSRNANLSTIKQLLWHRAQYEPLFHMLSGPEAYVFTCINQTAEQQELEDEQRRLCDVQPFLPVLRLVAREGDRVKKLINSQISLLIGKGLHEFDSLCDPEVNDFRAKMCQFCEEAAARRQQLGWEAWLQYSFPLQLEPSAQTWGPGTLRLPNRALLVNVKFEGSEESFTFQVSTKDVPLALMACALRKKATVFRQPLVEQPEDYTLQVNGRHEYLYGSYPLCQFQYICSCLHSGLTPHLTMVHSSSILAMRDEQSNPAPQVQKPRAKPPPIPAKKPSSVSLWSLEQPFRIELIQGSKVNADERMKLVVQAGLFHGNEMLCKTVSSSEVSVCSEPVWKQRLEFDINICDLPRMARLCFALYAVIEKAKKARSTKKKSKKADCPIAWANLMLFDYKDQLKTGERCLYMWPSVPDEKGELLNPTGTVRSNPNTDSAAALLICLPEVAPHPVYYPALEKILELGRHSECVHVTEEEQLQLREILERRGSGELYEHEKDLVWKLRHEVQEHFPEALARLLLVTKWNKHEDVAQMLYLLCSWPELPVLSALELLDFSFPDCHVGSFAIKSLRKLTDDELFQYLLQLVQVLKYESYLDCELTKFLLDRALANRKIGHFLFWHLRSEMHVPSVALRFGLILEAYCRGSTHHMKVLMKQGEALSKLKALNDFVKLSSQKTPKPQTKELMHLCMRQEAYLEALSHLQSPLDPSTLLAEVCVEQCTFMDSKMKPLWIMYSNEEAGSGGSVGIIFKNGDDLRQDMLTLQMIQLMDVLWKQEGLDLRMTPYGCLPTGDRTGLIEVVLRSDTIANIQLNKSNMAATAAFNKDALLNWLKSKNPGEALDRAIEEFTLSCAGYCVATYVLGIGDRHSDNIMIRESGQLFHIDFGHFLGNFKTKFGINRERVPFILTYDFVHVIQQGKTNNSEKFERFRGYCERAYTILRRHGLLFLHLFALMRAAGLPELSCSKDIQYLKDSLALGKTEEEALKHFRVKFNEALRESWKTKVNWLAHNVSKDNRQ
- Protocol description: Inhibition of PI3Kdelta (unknown origin) at 1 uM using Biotin-S11S12 as substrate after 120 mins in presence of ATP by ADPGlo luminescence assay
Entry format: amount then unit.

The examples below pair each entry with its known result.
Chemical structure	inhibition
Cc1cccc(C)c1-n1c(Cn2nc(-c3cnc4ccccc4c3)c3c(N)ncnc32)nc2cccc(F)c2c1=O	92%
Cc1ccccc1-n1c(Cn2nc(-c3ccc4[nH]ccc4c3)c3c(N)ncnc32)nc2cccc(F)c2c1=O	94.7%
Cc1cccc(C)c1-n1c(Cn2nc(-c3ccc4[nH]ccc4c3)c3c(N)ncnc32)nc2cccc(F)c2c1=O	96.8%

Here is another molecule to look at.
Given the molecule COc1ccc(-c2nn(Cc3nc4cccc(F)c4c(=O)n3-c3ccccc3C)c3ncnc(N)c23)cc1OC , what is its reported inhibition?
90.8%

---

- Target under test: Phosphatidylinositol 4,5-bisphosphate 3-kinase catalytic subunit delta isoform (Homo sapiens)
- Protocol description: Inhibition of PI3Kdelta (unknown origin) using Biotin-S11S12 as substrate after 120 mins in presence of ATP by ADPGlo luminescence assay
# IC50 per entry
The answer is to be given in nM; state only the numeric part.

Chemical structure	IC50 / nM
Cc1ccccc1-n1c(Cn2nc(-c3ccc4cc(O)ccc4c3)c3c(N)ncnc32)nc2cccc(F)c2c1=O	227
Cc1ccccc1-n1c(Cn2nc(-c3ccc4c(c3)OCO4)c3c(N)ncnc32)nc2cccc(F)c2c1=O	106
Cc1cccc(C)c1-n1c(Cn2nc(-c3cnc4ccccc4c3)c3c(N)ncnc32)nc2cccc(F)c2c1=O	81

Then this compound:
Quick one: IC50 of Cc1cccc(C)c1-n1c(Cn2nc(-c3ccc4[nH]ccc4c3)c3c(N)ncnc32)nc2cccc(F)c2c1=O ?
8.6

---

- Protocol description: Plasma concentration in Sprague-Dawley rat at 10 mg/kg, po after 0.25 hrs
- Type: ADME, organism-based
The entries below come with measured concentration at 0.25 h values attached.
Answer shape: numeric part, then the unit.

Chemical structure	concentration at 0.25 h
Cc1cccc(C)c1-n1c(Cn2nc(-c3ccc4[nH]ccc4c3)c3c(N)ncnc32)nc2cccc(F)c2c1=O	343 ng/mL

Shift focus to the following entry.
# concentration at 0.25 h lookup, item COc1ccc(-c2nn(Cc3nc4cccc(F)c4c(=O)n3-c3c(C)cccc3C)c3ncnc(N)c23)cc1OC
343 ng/mL

---

- Protocol description: Volume of distribution at steady state in Sprague-Dawley rat at 1 mg/kg, iv
- Assay type: ADME, organism-based
- Cond: in vivo, read-out: Vdss
Listing: Vd of selected compounds
Express the reported value numerically, then name its unit.

Chemical structure	Assay value
COc1ccc(-c2nn(Cc3nc4cccc(F)c4c(=O)n3-c3c(C)cccc3C)c3ncnc(N)c23)cc1OC	0.45 L/kg

--- query ---
What Vd value was documented for this compound, Cc1cccc(C)c1-n1c(Cn2nc(-c3ccc4[nH]ccc4c3)c3c(N)ncnc32)nc2cccc(F)c2c1=O ?
1.11 L/kg

---

- Protocol description: Plasma concentration in Sprague-Dawley rat at 1 mg/kg, iv after 0.083 hrs
- Type: ADME, organism-based
Value type: concentration at 0.083 h (ng/mL)
Note: unit ng/mL is implicit; provide only the numeric part.

Chemical structure	Value type	Unit abbreviation	Assay value
Cc1cccc(C)c1-n1c(Cn2nc(-c3ccc4[nH]ccc4c3)c3c(N)ncnc32)nc2cccc(F)c2c1=O	concentration at 0.083 h	ng/mL	1020

Please examine the following record next.
// query concentration at 0.083 h value for entry COc1ccc(-c2nn(Cc3nc4cccc(F)c4c(=O)n3-c3c(C)cccc3C)c3ncnc(N)c23)cc1OC
1020
